- Assay Comment: Cmax in leukopenic mouse with renal failure at 7 mg/kg, sc after 0.5 hrs
- Type: ADME, organism-based
- Design: dose 7 mg/kg, route subcutaneous
- Test Parameters: in vivo
Measurement Kind: Cmax (ng/mL)
The figure you give is taken to be in ng/mL; do not add the unit.

// query Need Cmax, item CC1(C)S[C@@H]2[C@H](NC(=O)[C@H](N)c3ccc(O)cc3)C(=O)N2[C@H]1C(=O)O [AMOXICILLIN]
// result 13000

----------
- Assay Comment: AUC in human at 1 g, po
- Type: ADME, organism-based
- Test Parameters: plasma
Measurement Kind: AUC (ng·h/mL)
State the answer as a number, implicitly in ng·h/mL.

// query Any idea what its AUC is? The compound is CC1(C)S[C@@H]2[C@H](NC(=O)[C@H](N)c3ccc(O)cc3)C(=O)N2[C@H]1C(=O)O
// result 68000

----------
- Assay Comment: Cmax in leukopenic mouse with renal failure at 25 mg/kg, sc after 0.5 hrs
- Format: ADME, organism-based
- Set-up: dose 25 mg/kg, route subcutaneous
- Test Parameters: in vivo
Measurement Kind: Cmax (µg/mL)
// note: answer is a bare numeric in µg/mL

// query What value of measured Cmax is listed for CC1(C)S[C@@H]2[C@H](NC(=O)[C@H](N)c3ccc(O)cc3)C(=O)N2[C@H]1C(=O)O ?
// result 85

----------
- Assay Comment: AUC in leukopenic mouse with renal failure at 7 mg/kg, sc
- Type: ADME, organism-based
- Parameters: dose 7 mg/kg, route subcutaneous
- Test Parameters: plasma
Measurement Kind: AUC (ng·h/mL)
Please respond with the number in ng·h/mL and leave the unit unwritten.

// query Would you mind telling me what AUC value was observed for CC1(C)S[C@@H]2[C@H](NC(=O)[C@H](N)c3ccc(O)cc3)C(=O)N2[C@H]1C(=O)O ?
// result 46000

----------
- Assay Comment: Half life in human at 1 g, po
- Type: ADME, organism-based
- Test Parameters: in vivo
Measurement Kind: half-life (min)
# unit: min | format: bare number

// query What value of half-life has been recorded for this entry: CC1(C)S[C@@H]2[C@H](NC(=O)[C@H](N)c3ccc(O)cc3)C(=O)N2[C@H]1C(=O)O
// result 90

----------
- Assay Comment: AUC in leukopenic mouse with renal failure at 15 mg/kg, sc
- Type: ADME, organism-based
- Design: dose 15 mg/kg, route subcutaneous
- Test Parameters: plasma
Measurement Kind: AUC
Units required after the number.

// query # get_value(readout='AUC', item= CC1(C)S[C@@H]2[C@H](NC(=O)[C@H](N)c3ccc(O)cc3)C(=O)N2[C@H]1C(=O)O )
// result 80000 ng·h/mL

----------
- Assay Comment: Half life in leukopenic mouse with renal failure at 15 mg/kg, sc
- Assay type: ADME, organism-based
- Set-up: dose 15 mg/kg, route subcutaneous
- Test Parameters: in vivo
Measurement Kind: half-life (h)
Write the answer as a number in h, unit excluded.

// query # input molecule: CC1(C)S[C@@H]2[C@H](NC(=O)[C@H](N)c3ccc(O)cc3)C(=O)N2[C@H]1C(=O)O [AMOXICILLIN] ; wanted: its half-life
// result 1.6

----------
- Assay Comment: Half life in leukopenic mouse with renal failure at 7 mg/kg, sc
- Assay type: ADME, organism-based
- Design: dose 7 mg/kg, route subcutaneous
- Test Parameters: in vivo
Measurement Kind: half-life (min)
Answer format: numeric, min implied, no suffix.

// query Fill blank: measured half-life of the compound CC1(C)S[C@@H]2[C@H](NC(=O)[C@H](N)c3ccc(O)cc3)C(=O)N2[C@H]1C(=O)O is ____.
// result 96
